assay: Bmi1 luciferase reporter increase in mESCs, primary screen, esBAF inhibitor project, mouse ES cells, Bmi1 luciferase knock-in, single point (AID 602393); details: 24 h, at 12.5 µM, stronger effect = higher value, 100% = twice the neutral-well signal;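 also: 0% = median of the plate's neutral control wells and 100% = double that signal; a rise in the Bmi1 reporter signal indicates esBAF inhibition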
In all, about 350,000 compounds went through this assay and about 7,000 (2%) were called active. For the sample, actives were picked, then their nearest neighbours and some compounds at random.
recorded metric: reporter increase

{"columns": ["compound structure string", "reporter increase"],
 "data": [
  ["C[C@H](CO)N1C[C@H](C)[C@H](CN(C)S(=O)(=O)c2cn(C)cn2)Oc2c(NC(=O)C3CCOCC3)cccc2C1=O", "-1.13% (inactive)"],
  ["C/C(=N\\c1nc2ccccc2n1C)c1cc(Cl)ccc1O", "-2.25% (inactive)"],
  ["O=C(Cn1c(NCCO)nc2ccccc21)c1ccc(Cl)cc1Cl", "-0.748% (inactive)"],
  ["O=c1c2ccccc2nnn1CSc1nnnn1-c1ccccc1", "57.4% (active)"]
]}

We next turn to a different molecule, shown below.
Briefly, reporter increase measured for CC(C)NC(=O)N(C)C[C@H]1OCCCC[C@@H](C)Oc2ccc(NS(C)(=O)=O)cc2C(=O)N([C@H](C)CO)C[C@H]1C : -1.04% (inactive)

###

assay: Bmi1 luciferase reporter increase in mESCs, primary screen, esBAF inhibitor project, mouse ES cells, Bmi1 luciferase knock-in, single point (AID 602393); settings: 24 h, at 12.5 µM, stronger effect = higher value, 100% = twice the neutral-well signal;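 also: 0% = median of the plate's neutral control wells and 100% = double that signal; a rise in the Bmi1 reporter signal indicates esBAF inhibition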
The whole screen tested about 350,000 compounds, of which about 7,000 (2%) were called active. Many of the other results were omitted from the sample, so actives are more common in it than they were.
recorded metric: reporter increase (%)
Value expressed in %; do not type the unit.

{"columns": ["compound structure string", "reporter increase, %"],
 "data": [
  ["Cc1ccc(S(=O)(=O)N(C)C[C@@H]2Oc3c(NS(C)(=O)=O)cccc3C(=O)N([C@@H](C)CO)C[C@H]2C)cc1", -2.2],
  ["COc1cc(OC)cc(C(=O)NNC(=O)Cc2cccs2)c1", 3.48],
  ["COC(=O)C[C@@H]1CC[C@@H]2[C@@H](COc3ccc(NC(=O)C4CCOCC4)cc3C(=O)N2C)O1", 1.18],
  ["COc1ccc(CN(C)C[C@H]2OCCCC[C@H](C)Oc3ccc(NC(=O)NC4CCCCC4)cc3C(=O)N([C@@H](C)CO)C[C@@H]2C)cc1", 2.7],
  ["O=C(C[C@H]1C=C[C@H](NC(=O)Cc2ccccn2)[C@@H](CO)O1)NCCc1ccccc1", -5.91]
]}

reporter increase recorded for this molecule, CN(C)C(=O)c1cccc(-c2ccc3n(c2=O)C[C@H]2N[C@@H]3[C@@H](C(=O)NC3CCC3)[C@@H]2CO)c1 , is -3.26

Reported reporter increase ( O=C(Nc1n[nH]c(C(F)(F)F)n1)c1cccs1 ) = -2.17

Value of measured reporter increase for the entry O=C(NCc1ccc2c(c1)OCO2)c1ccc(Cl)s1 : 16.1

molecule O=C(NC1=NCCS1)c1ccc(Cl)s1 , reporter increase observed: 56.6

###

test: Bmi1 luciferase reporter increase in mESCs, primary screen, esBAF inhibitor project, mouse ES cells, Bmi1 luciferase knock-in, single point (AID 602393); conditions: 24 h, at 12.5 µM, 100% = twice the neutral-well signal;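 also: 0% = median of the plate's neutral control wells and 100% = double that signal; a rise in the Bmi1 reporter signal indicates esBAF inhibition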
Hit rate of the full screen: of about 350,000 compounds, about 7,000 (2%) were called active. No stated cut-off is given here; in the data, active means activation above about 40%; inconclusive means no clear call, values can overlap the other calls; inactive means below that. The sample as a whole holds a higher share of actives than the screen did.
Answer with one of the outcomes yes = active, no = inactive

{"columns": ["molecule", "label"],
 "data": [
  ["COc1ccc(C(=O)NC2=NCCS2)c(OC)c1", "no"],
  ["Cc1cc(/C=C2/SC(=O)N(CC(=O)OC(C)C)C2=O)c(C)n1C", "yes"],
  ["C[C@@H]1CN([C@@H](C)CO)C(=O)c2cc(N(C)C)ccc2O[C@@H](C)CCCCO[C@H]1CN(C)Cc1ccncc1", "no"],
  ["C[C@H](CO)N1C[C@H](C)[C@H](CN(C)S(=O)(=O)c2ccccc2)Oc2ccc(NC(=O)Cn3cnnn3)cc2C1=O", "no"],
  ["CC(OC(=O)CN1C(=O)c2ccccc2C1=O)C(=O)c1ccccc1 (centres undefined)", "no"]
]}

Ask: Status in this test for COC(=O)/C(=C1\Oc2ccc(C(C)(C)C)cc2S1)C(F)(F)F ?
Reply: yes

Ask: Assay outcome for C[C@H](CO)N1C[C@H](C)[C@@H](CN(C)C)Oc2cc(C#Cc3ccccc3)ccc2S1(=O)=O : what was it?
Reply: no

Ask: Entry COc1ccc(C(=O)Nc2sc(C)c(C)c2CN2CCOCC2)cc1 : call = ?
Reply: yes

Ask: // outcome(item) with item = Nc1ccc(N=Nc2ccccc2Cl)c(N)n1
Reply: yes

Ask: For COCC#Cc1cnc2c(c1)C(=O)N([C@H](C)CO)C[C@H](C)[C@@H](CN(C)C(=O)Nc1cc(F)ccc1F)O2 , which call appears in the assay record?
Reply: no

Ask: Hi team, can someone confirm the assay call for COc1ccc(Cc2nnc(NC(=O)c3cc(OC)c(OC)c(OC)c3)s2)cc1OC ?
Reply: no

Ask: Please let me know the test result on file for CN(C)C(=O)CCc1ccc2c3c([nH]c2c1)[C@]1(CCc2ccccc2)[C@@H](C(=O)N2CCCCC2)C[C@H](CC(=O)NCCC2=CCCCC2)C(=O)N1CC3 .
Reply: yes
